- assay.info: yeast display, Sf9 membrane polyspecificity reagent, FACS + sequencing; frameworks hold sequencing errors

seq.text	polyreactivity (PSR sort gate)
QVQLVESGGGLVQAGGSLRLSCAASGSILYYNAMGWYRQAHGKERELVAAISTRGGSTYYADSVKGRFTISRDNAKNTVYLQMNSLKPEDTAVYYCAADHNVIWGYYYWGQGTQVTVSS	high polyreactivity
QVQLVESGGGLVQAGGSLRLSCAASGFTFGRNTMGWYRQAPGKERELVAAITRRGGTTHYADSVKGRFTISRDNAKNTVYLQMNSLKPEDTAVYYCAADPFNSYYGRYDYWGQGTQVTVSS	high polyreactivity
QVQLVESGGGLVQAGGSLRLSCAASGRIFLWYAMGWYRQAPGKERELVASITRSGVTTYYADSVKGRFTISRDNAKNTVYLQMKSLKPEDTAVYYCNKDFRGDAIKLDVNYWGQGTQVTVSS	low polyreactivity
QDQLVETGGGLVQAGGSLRLSCAAYGSIFDLNAMGWYRQAPGKESELVAAITYSSGRTYYADSVKGRFTISRDNAKNTVYLQMNSLKPEDTAVYYCNADLWFHYYRYNYWGQGTQVTVSS	high polyreactivity
QVQLVESGGGLVQAGGSLRLSCAASGFTFYTYAMGWYRQAPGKERELVADISSGGSTNYADSVKGRFTISRDNAKNTVYLQMNSLKPEDTAVYYCSADYYFLDWYDYWGQGTQVTVSS	low polyreactivity
QVQLQECGGGLVQAGGSLRLSCAASGTFSNSVKWLYCHAPGKEREFVATIGVGGSTNYADSVKGRFTISRDNAKYTVYLQMNSLKPEDTAVYHCAAYGAASNFHYYRGQGTQVTVSS	low polyreactivity
QVQLVESGGGLVQAGGSLRLSCASSGITFNLNDMGWYRQAPGKERELVAAITSGGNTSYADSVKGRFTISRDNAKNTVYLQMNSLKPEDTAVYYCATEDFRTDTGMYYWGQGTQVTVSS	low polyreactivity
QVQLVESGGGLVQAGGSLRLSCAASGSMFSHYTMGWYRQAPGQERELVAAITNGGITNYADAVKGRFTISRDNAKNTVYLQMNSLKPEDTAVYYCAADWWYGYSNYDYWGQGTQVTVSS	low polyreactivity
QDQIVESGVGLVQAGGTLRLSCAASGFTFRRYVMGWYRQAPGKERELVAAISQSGGSTYYADSVKGRFTISRDNAKNTVYLQMKSLKPEDTAVYYCAATGAFWYPYDYWGQGTQVTVSS	high polyreactivity
QVQLVESGGGLVQAGGSLRLSCAASGSTFVGNAMGWYRQAPGKERELVAAISRTGGSTYYADSVKGRFTISRDNAKNTVYLQMNSLKPEDTAVYYCNAYTRYSSRRGIGDYWGQGTQVTVSS	high polyreactivity
QVQLVESGGGLVQAGGSLRLSCGASGRTFFWYDMGWYRQAPGKERELVAAISSSTRTKYADSVKGRFTISRDNAKNTVYLQMNSLKPEDSAVSYCAATSDYYHYWYYSSVRRFDYWGQGTQVTVSS	high polyreactivity
QVQLVESGGGLVQAGGSLRLSCAASGFTNSMGWSTQAHGKERELVAAISYSGDSTNYADSVKGRFTISRDNAKNTVYLQMNSLKPEDTAVYYCNASSPYDYDWGQGTQVTVSS	low polyreactivity
QVQLVESGGGLVQAGGSLRLSCAASGFTFFRNAMGWYRQAPGKEMELVAAISGSGGSTYYADSVKGRFTISRDNAKNTVYLQINSLKPEDTAVYYCATYSYPAKVPEAYNYWGQGSQVTVSS	low polyreactivity
QVQLVESGGGLVQAGGSLRLSCAASGLIFPSYTMGWYRQAPGKERELVAAITFSGDSTNYADSVKGRFTISRDNAKNTVYLQMNSLKPEDTAVYYCAASQVSDTTRFGYWGQGTQVTVSS	low polyreactivity
QVQLVESGGGLVQAGGSLRLSCAASGITLFYYAMGWYRQAPGKERELVAVISASGGSTYYADSVKGRFTISRDNAKNTVYIQMNSLKPEDTAVYYCAAVAYWRSSSWYYYWGQGTQVTVSS	high polyreactivity
QVQLVESGGGLVQAGGSLRLSCAASGSIFNANAMGWYRQAPGKERELVARITRGGRTNYADSVKGRFTISLDNAKNSVYLQMNSLKPEDTAVYYCAAVYYVGFPHKYDYWGQGTQVTVSS	low polyreactivity
QVQLVESVGGLVQAGGSLRLSCAASGITFNEYAMGWYRQATGKARELVAAISRRGGSTYYADSVKGRFTISRDNAKNTVYLQMYSLKPEDTAVYYCAADPGTPRYQFLWYGYWGQGTQVTVSS	low polyreactivity
QVQLVESGGGLVQAGGSLRLSCAASGRIFSFYAMGWYRQAPGKERELVATISKRAGSTYYADSVKGRFTISRDNAKNTVYLQMNSLKPEDTAVYYCAARKWYYASSRWRDYWGQGTQVTVSS	high polyreactivity
QVQLVESGGGLVQAGGSLRLSCAASGSTFLGYTMGWSRQAPGKERELVATITRRGGRTSYADSVKGRFTISRDNAKNTVYLQMNSLKPEDTAVYYCATDSKRSSVPWNTYDYWGQGTQVTVSS	high polyreactivity
QVQLVESGGGLVQAGGSLRLSCAASGFIFGYNAMGWYRQAPGKERELVASITINDGSTYYADSVKGRFTISRDNAKNTVYLQMNCLKPEDTAVYYCAAGGWYSLDILPYRYDYWGQGTQVTVSS	low polyreactivity
QVQHVESGGGLVQAGGSLRLSCAASGRTFKGYAMGWYRQAPGKESQLVAGISTGGNTNYADSVMGRFTISRDNAKNTVYLQMNSLKPEDTAVYYCNAVYRGFTHYTGYEYWGQGTQVTVSS	high polyreactivity
